system: HT-29; assay: Dose required to inhibit cell growth was determined against HT-29 cell line of human adenocarcinoma; assay type: functional, cell-based
reported_metric: IC50 (µM)

{"columns": ["compound", "tested_on", "reported_metric", "unit_of_measurement", "val"],
 "data": [
  ["CCCc1ccc(NC(=O)NCCCl)cc1", "HT-29", "IC50", "µM", 23],
  ["CC(C)(C)c1ccc(NC(=O)NCCCl)cc1", "HT-29", "IC50", "µM", 9.1],
  ["CCCCCCc1ccc(NC(=O)NCCCl)cc1", "HT-29", "IC50", "µM", 12],
  ["O=C(NCCCl)Nc1ccc2c(c1)CCC2", "HT-29", "IC50", "µM", 10],
  ["CC(C)(C)Cc1ccc(NC(=O)NCCCl)cc1", "HT-29", "IC50", "µM", 36],
  ["O=C(NCCCl)Nc1ccc(Cl)cc1", "HT-29", "IC50", "µM", 14],
  ["CCC(C)c1ccc(NC(=O)NCCCl)cc1 (stereo not drawn)", "HT-29", "IC50", "µM", 3.6],
  ["CC(C)c1ccc(NC(=O)NCCCl)cc1", "HT-29", "IC50", "µM", 5]
]}
